System: Rsp (Staphylococcus aureus NCTC8325), ORF:0cc986df
Sequence: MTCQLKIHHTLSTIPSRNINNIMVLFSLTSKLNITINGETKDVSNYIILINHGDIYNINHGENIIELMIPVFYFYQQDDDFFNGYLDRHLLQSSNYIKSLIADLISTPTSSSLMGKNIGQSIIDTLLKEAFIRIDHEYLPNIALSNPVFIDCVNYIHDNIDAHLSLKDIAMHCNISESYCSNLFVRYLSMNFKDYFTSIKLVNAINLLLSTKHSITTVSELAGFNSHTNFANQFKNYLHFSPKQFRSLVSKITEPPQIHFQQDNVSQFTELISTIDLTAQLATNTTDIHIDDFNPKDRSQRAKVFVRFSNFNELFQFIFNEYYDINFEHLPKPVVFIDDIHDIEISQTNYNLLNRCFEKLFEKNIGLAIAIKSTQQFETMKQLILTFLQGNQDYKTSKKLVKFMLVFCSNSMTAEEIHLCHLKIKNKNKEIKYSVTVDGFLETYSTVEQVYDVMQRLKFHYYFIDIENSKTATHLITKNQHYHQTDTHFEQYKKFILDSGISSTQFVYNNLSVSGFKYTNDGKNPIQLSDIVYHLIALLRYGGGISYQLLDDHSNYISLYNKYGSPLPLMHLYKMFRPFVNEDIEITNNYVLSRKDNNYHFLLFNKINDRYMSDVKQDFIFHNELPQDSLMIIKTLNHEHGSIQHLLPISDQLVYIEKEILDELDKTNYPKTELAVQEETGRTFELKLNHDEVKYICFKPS
assay overview: EMSA
quantity measured: binding

Recorded binding, per entry:
[
  {
    "residues": "TGATTTTAAAAATTTCCATGTTTTACATTTAAATGATAGATTTCAATATATATTAGGCAGGAGAGAGAAATATGACATGCCAACTTAAA (double strand) [rsp promoter 89 bp]",
    "tgt": "Rsp (Staphylococcus aureus NCTC8325), ORF:0cc986df",
    "binding": "no binding"
  },
  {
    "residues": "AACCTTCCATTGAAAACACTCCTTAAAATTTAAATTTGAAGATAACAAAAACGTGCGTAGCTTTTAAATCACCGAAATGTTATTCGCTT (double strand) [psmβ promoter 89 bp]",
    "tgt": "Rsp (Staphylococcus aureus NCTC8325), ORF:0cc986df",
    "binding": "no binding"
  },
  {
    "residues": "ACTTAAATACGAATTCAGGCAACTTAATTGTGTTAAATACAGTTTTGAATGCCTAACTGTATTTCTTTTCTCTTTAAAATACAGTTAAGTACATTATAAGATGTTGTGCGGATAAACAAACTAATTGCATCAAATTTATTTTAAAATAACAACAACAAAACGTTAAGCGAATAACATTTCGGTGATTTAAAAGCTACGCACGTTTTTGTTATCTTCAAATTTAAATTTTAAGGAGTGTTTTCAATGGAAGGTT (double strand) [psmβ promoter 253 bp]",
    "tgt": "Rsp (Staphylococcus aureus NCTC8325), ORF:0cc986df",
    "binding": "binds"
  },
  {
    "residues": "GCCAGCGATGATACCCATTAAGATTACCTCCTTTGCTTATGAGTTAACTTCATTGTACATAGTTATCTTGTGCGTAATTGATTTT (double strand) [psmα promoter 85 bp]",
    "tgt": "Rsp (Staphylococcus aureus NCTC8325), ORF:0cc986df",
    "binding": "no binding"
  }
]

Here is the next item to consider.
Asked: With Rsp (Staphylococcus aureus NCTC8325), ORF:0cc986df as the test system, provide measured binding for this sequence: TAGTGTTGTTGTTACTGAGCTGACTATACGTGTTTTCATTTTCATCATCCTTCTATTTTTTAAAACGATTTGAGGAAACAATAATCAATATGTCAATTTAGAATATTGCA (double strand) [hla promoter 110 bp]
Given back: no binding

Reference source: paper PMC7241556
